// provenance: patent EP4644396A1

# measured.on: human TLR8 (Homo sapiens, UniProt Q9NR97)
# Construct: expressed in transfected cells
# Sequence (Q9NR97 27-1041): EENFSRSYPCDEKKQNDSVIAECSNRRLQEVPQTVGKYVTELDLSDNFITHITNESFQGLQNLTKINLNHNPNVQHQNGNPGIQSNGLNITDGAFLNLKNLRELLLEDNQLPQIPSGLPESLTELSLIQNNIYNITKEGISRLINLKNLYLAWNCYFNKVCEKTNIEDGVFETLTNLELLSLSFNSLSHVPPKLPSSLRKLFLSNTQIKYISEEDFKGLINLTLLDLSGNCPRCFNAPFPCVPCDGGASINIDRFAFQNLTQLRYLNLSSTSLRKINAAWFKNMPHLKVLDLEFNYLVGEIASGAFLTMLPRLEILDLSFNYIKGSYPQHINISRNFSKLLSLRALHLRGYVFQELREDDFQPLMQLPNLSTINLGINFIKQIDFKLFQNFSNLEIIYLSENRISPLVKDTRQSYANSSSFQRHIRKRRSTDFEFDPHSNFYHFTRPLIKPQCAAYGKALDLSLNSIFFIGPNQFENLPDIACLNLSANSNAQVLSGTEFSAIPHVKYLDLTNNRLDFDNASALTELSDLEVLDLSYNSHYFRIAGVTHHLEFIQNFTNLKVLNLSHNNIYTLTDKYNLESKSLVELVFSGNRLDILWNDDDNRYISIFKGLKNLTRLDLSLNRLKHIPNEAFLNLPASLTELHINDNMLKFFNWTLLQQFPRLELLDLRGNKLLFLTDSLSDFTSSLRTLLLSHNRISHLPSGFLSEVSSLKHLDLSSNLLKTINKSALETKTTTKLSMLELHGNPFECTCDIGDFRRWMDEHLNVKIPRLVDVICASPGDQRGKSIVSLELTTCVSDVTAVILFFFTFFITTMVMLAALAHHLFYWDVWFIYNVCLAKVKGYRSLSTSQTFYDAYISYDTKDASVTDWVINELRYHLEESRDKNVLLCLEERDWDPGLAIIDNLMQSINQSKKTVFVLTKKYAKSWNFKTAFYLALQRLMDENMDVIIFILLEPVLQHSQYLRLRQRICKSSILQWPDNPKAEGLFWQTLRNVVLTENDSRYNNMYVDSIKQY
# method.notes: HEK-Blue hTLR8 SEAP reporter gene inhibition assay
# Type: cell-based
# condition.description: hTLR8 HEK-Blue cells, TLR8 ligand 10 µM, 20 hours, SEAP by Quanti-blue; class symbols; read-out: HEK-Blue hTLR8 IC50
pIC50: −log10 of the molar value.
assay.readout: pIC50

CC1Cc2nn3c(c2CN1)CN(c1ccc(C#N)n2ncc(F)c12)C[C@H]3C (stereo partly shown) [Example I-11] :: > 7.00
C[C@@H]1CN(c2ccc(C#N)n3ncc(F)c23)Cc2c3c(nn21)C1CCC(C3)N1 (stereo partly shown) [Example I-52] :: > 7.00

// query Lab note: need pIC50 with human TLR8 (Homo sapiens, UniProt Q9NR97) for entry C[C@@H]1CN(c2ccc(C#N)n3ncc(F)c23)Cc2c3c(nn21)CN(CC(C)(C)C(N)=O)[C@@H](C)C3 [Example I-198] , please look it up.
// result < 7.00

// query Please do the same for C[C@@H]1CN(c2ccc(C#N)n3ncc(F)c23)Cc2c3c(nn21)CC(N1CCC(O)C1)CC3 (stereo partly shown) [Example I-34] as well.
// result > 7.00

// query Continue with C[C@@H]1CN(c2ccc(C#N)n3ncc(F)c23)Cc2c3c(nn21)CNCC3 [Example I-5]
// result > 7.00
